B1: LINE1-mini (parent)
chain: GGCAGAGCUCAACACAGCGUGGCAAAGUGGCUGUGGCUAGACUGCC

Variants of: B1
Assay: self-cleavage, relative activity (ratio to wild type); higher = more cleavage; in vitro, sequencing; the parent is a self-cleaving ribozyme
metricName: self-cleavage

Worked set:
C15U C37A: 0.11
G1C C3A: 0.19
G29U G36U: 0.05
A4G C42U: 0.22
G27C C46U: 1.09

Tell me self-cleavage reported for G2U C8G
0.04

Tell me self-cleavage reported for U38G A41G
0.14

Tell me self-cleavage reported for C8U G33U
0.16

Tell me self-cleavage reported for C31G U32G
0.08

Tell me self-cleavage reported for A41U C45U
0.55
